// values below are reported solubility at 2 h
Protocol notes: Solubility of the compound in pH 1 0.1M HCl after 2 hrs by UV-HPLC analysis
Format: physicochemical
Where a SMILES comes first, the peptide text is derived from it. [ ]: non-standard residue; d: D form. The star is where a group is joined. Trt = c1ccc(C(c2ccccc2)(c2ccccc2)*)cc1; Sar = CNCC(=O)O; tBu = CC(C)(C)*
Experimental endpoint: solubility at 2 h

{"Compound": "CN1CC(=O)N[C@@H](CSC(c2ccccc2)(c2ccccc2)c2ccccc2)C(=O)N(C)CC(=O)N[C@@H](CSC(c2ccccc2)(c2ccccc2)c2ccccc2)C(=O)N(C)CC(=O)N[C@@H](COC(C)(C)C)C1=O (cyclo(C(Trt)[Sar]C(Trt)[Sar]S(tBu)[Sar]))", "Endpoint value": "0.74 µM"}
{"Compound": "CN1CC(=O)N[C@@H](CSC(c2ccccc2)(c2ccccc2)c2ccccc2)C(=O)N(C)CC(=O)N[C@@H](CSC(c2ccccc2)(c2ccccc2)c2ccccc2)C(=O)N(C)CC(=O)N[C@@H](CCC(=O)O)C1=O (cyclo(C(Trt)[Sar]C(Trt)[Sar]E[Sar]))", "Endpoint value": "28.3 µM"}
{"Compound": "C[C@@H](OC(C)(C)C)[C@@H]1NC(=O)CN(C)C(=O)[C@H](CSC(c2ccccc2)(c2ccccc2)c2ccccc2)NC(=O)CN(C)C(=O)[C@H](CSC(c2ccccc2)(c2ccccc2)c2ccccc2)NC(=O)CN(C)C1=O (cyclo(C(Trt)[Sar]C(Trt)[Sar]T(tBu)[Sar]))", "Endpoint value": "0.38 µM"}
{"Compound": "CN1CC(=O)N[C@@H](CSC(c2ccccc2)(c2ccccc2)c2ccccc2)C(=O)N[C@@H](CSC(c2ccccc2)(c2ccccc2)c2ccccc2)C(=O)N(C)CC(=O)N[C@@H](COC(C)(C)C)C1=O (cyclo(C(Trt)C(Trt)[Sar]S(tBu)[Sar]))", "Endpoint value": "0.21 µM"}
{"Compound": "C[C@@H](OC(C)(C)C)[C@@H]1NC(=O)CN(C)C(=O)[C@H](CSC(c2ccccc2)(c2ccccc2)c2ccccc2)NC(=O)CNC(=O)[C@H](CSC(c2ccccc2)(c2ccccc2)c2ccccc2)NC(=O)CN(C)C1=O (cyclo(C(Trt)GC(Trt)[Sar]T(tBu)[Sar]))", "Endpoint value": "3.46 µM"}
